test system: HOP-92; assay: NCI tumour cell line growth inhibition, 48 h
Activity calls are given as the source filed them. Cut-off read from the data, not from the text of the source: active = GI50 up to about 1.1 µM and inactive = higher.
Permitted responses: active, inactive

Field: example entries. Status: answers known.
Compound | Qualitative Label
Nc1nc(N)c2c(Cl)c(CNc3ccc(C(=O)NC(CC(=O)O)C(=O)O)cc3)ccc2n1 (stereo not drawn) | active
COC(=O)c1nc(N)nc(C(=O)OC)c1C(=O)c1ccccc1 | inactive

From here, focus on the item given below.
Q: Record lookup: outcome of this test for `COc1ccc2c(-c3csc(-c4c[nH]c5ccc(Br)cc45)n3)c[nH]c2c1` ?
Ans: inactive

* * *

test system: NCI-H460; assay: NCI tumour cell line growth inhibition, 48 h
Calls of active or inactive are those of the source. Cut-off read from the data, not from the text of the source: active = GI50 up to about 1.1 µM and inactive = higher.
Readout Kind: GI50

Check out these entries, answers already filled in.
Molecule | GI50
O=C1CCC(=O)C12CCc1ccccc12 | > 100 µM (inactive)
CCOC(=O)C1=CN(C(=O)c2ccccc2)CCC1Cc1ccccc1 (centres undefined) | 17.5 µM (inactive)
Clc1ccc(-c2nnc3c4nnc(-c5ccc(Cl)cc5Cl)n4c4ccccc4n23)c(Cl)c1 | > 100 µM (inactive)
CC(=O)NC1=C(OS(=O)(=O)c2ccc(C)cc2)CN(C)C1=O | 2.37 µM (inactive)
O=C(O)c1ccccc1-c1ccccc1C(=O)Nc1ccc2c(c1)Cc1ccccc1-2 | 19.2 µM (inactive)

Q: Which measured GI50 belongs to CCc1cc2c(c3c1CCCC3)CC1(Cc3ccc(C(=O)OC)cc3C1)C2 (centres undefined) , tested on NCI-H460?
Ans: > 100 µM (inactive)

Q: Which measured GI50 belongs to `CCN(CC)CCC(=O)c1ccc(Oc2ccc(Cl)cc2)cc1` , tested on NCI-H460?
Ans: 14.7 µM (inactive)

Q: Which measured GI50 belongs to `CCCCCCCCCCCC[C@H](O)[C@H]1CC[C@H]([C@H](O)CCCC[C@H](O)CCCCC[C@@H](O)CC2=C[C@H](C)OC2=O)O1` , tested on NCI-H460?
Ans: 3.04 µM (inactive)

Q: Which measured GI50 belongs to CS(=O)(=O)N1CC(CCl)c2ccc(O)cc21 (centres undefined) , tested on NCI-H460?
Ans: 2.9 µM (inactive)

* * *

tested on: NCI-H226; experiment: NCI tumour cell line growth inhibition, 48 h
The source made the active and inactive calls. Cut-off read from the data, not from the text of the source: active = GI50 up to about 1.1 µM and inactive = higher.
Reported values of GI50 for individual entries

Compound | Readout Kind | Recorded Value
O=C(Nc1nc(C23CC4CC(CC(C4)C2)C3)cs1)c1cc2ccccc2oc1=O | GI50 | > 100 µM (inactive)
C[C@H]1[C@H](C)CC[C@]2(C(=O)OC3OC(CO)C(O)C(O)C3O)CC[C@]3(C)C(=CC[C@@H]4[C@@]5(C)C[C@@H](O)[C@@H]6OC(=O)c7cc(O)c(O)c(O)c7-c7c(cc(O)c(O)c7O)C(=O)OC[C@]6(CO)[C@@H]5CC[C@]43C)[C@H]12 (stereo partly specified) | GI50 | 67.8 µM (inactive)
CS(=O)(=O)N1CC(CCl)c2ccc(NCCN)cc21 (stereo unspecified) | GI50 | > 100 µM (inactive)
C/C=C1/CN2CCC34c5ccccc5N5C(=O)C(C6CC78c9ccccc9N9C(=O)C=CC(C%10CC7N6C/C%10=C/C)C98)=CC(C1CC23)C54 (stereo unspecified) | GI50 | 7.13 µM (inactive)

Q: Which GI50 value belongs to `O=C(CC(=O)c1ccccc1)c1ccccc1.O=C(CC(=O)c1ccccc1)c1ccccc1.O=C(CC(=O)c1ccccc1)c1ccccc1.[SiH4]` ?
Ans: 8.87 µM (inactive)

Q: Which GI50 value belongs to COC1OC2COC(=O)c3cc(O)c(O)c(O)c3-c3c(cc(O)c(O)c3O)C(=O)OC2C(O)C1O (stereo unspecified) ?
Ans: > 100 µM (inactive)

Q: Which GI50 value belongs to `O=C1C(c2ccc([N+](=O)[O-])cc2)=C(Cl)C(=O)c2c(O)cccc21` ?
Ans: > 43.2 µM (inactive)

Q: Which GI50 value belongs to `CCOC(=O)c1c(N)n(-c2ccccc2)c(=S)n(-c2ccccc2)c1=O` ?
Ans: > 100 µM (inactive)

Q: Which GI50 value belongs to `COc1ccc2c(-c3csc(-c4c[nH]c5ccc(Br)cc45)n3)c[nH]c2c1` ?
Ans: 45.4 µM (inactive)

Q: Which GI50 value belongs to `CC1=C(C(=O)N(C(C)C)C(C)C)CC(C(=O)N(C(C)C)C(C)C)=C(C)N1` ?
Ans: > 100 µM (inactive)

Q: Which GI50 value belongs to CCc1cc2c(c3c1CCCC3)CC1(Cc3ccc(C(=O)OC)cc3C1)C2 (stereo unspecified) ?
Ans: > 100 µM (inactive)

* * *

test system: PC-3; experiment: NCI tumour cell line growth inhibition, 48 h
Activity calls are given as the source filed them. Rule as the data show it: active = GI50 up to about 1.1 µM and inactive = higher.
Reported values of GI50 for individual entries

Check out these entries, answers already filled in.
Molecule | Recorded Value
Cc1ccsc1/C=N/Nc1nncc2ccccc12 | 34.3 µM (inactive)
CN(C)CCCNC(=O)c1cn2c(ccc3sc4ccccc4c(=O)c32)n1 | 4.8 µM (inactive)
CC(=O)NCCC1CN(C(=O)/C=C\C#C[Si](C)(C)C)c2ccccc21 (configuration not stated) | 27 µM (inactive)
CCc1cc2c(c3c1CCCC3)CC1(Cc3ccc(C(=O)OC)cc3C1)C2 (configuration not stated) | 65 µM (inactive)
COc1ccc(CCN(C)C(=O)CC(C#N)(c2ccccc2)c2ccc(OC)c(OC)c2)cc1OC (configuration not stated) | > 100 µM (inactive)
COc1cc2c3c(c4cc(OC)c(OC)cc4c2cc1OC)C(=O)C1CCC(=O)N1C3 (configuration not stated) | 25.6 µM (inactive)

Turning now to a further molecule:
Q: Which measured GI50 belongs to `Cn1c(=O)c2c(ncn2CN2CCN(Cn3cnc4c3c(=O)n(C)c(=O)n4C)CC2)n(C)c1=O` , tested on PC-3?
Ans: 53.5 µM (inactive)

* * *

Reported values of GI50 for individual entries
tested on: HOP-18; experiment: NCI tumour cell line growth inhibition, 48 h
The source made the active and inactive calls. Cut-off read from the data, not from the text of the source: active = GI50 up to about 1.1 µM and inactive = higher.

Check out these entries, answers already filled in.
Compound | System | GI50
CC1=NOC(=O)C1/N=N/c1ccc(Br)c(C)c1 (stereo unspecified) | HOP-18 | 3.31 µM (inactive)
CC(Oc1ccc(OCC2CCCCC2)cc1)C(N)=O (stereo unspecified) | HOP-18 | > 100 µM (inactive)
O=c1/c(=C/c2ccccc2[N+](=O)[O-])sc2nc3ccccc3n12 | HOP-18 | 44.6 µM (inactive)
CSc1ccc(N2C(=O)C3c4[nH]c5ccccc5c4C4CCC(C(C)(C)C)CC4C3C2=O)cc1 (stereo unspecified) | HOP-18 | 22.8 µM (inactive)

Q: Which GI50 value belongs to CC(=O)OCC1OC(n2c(=O)n(-c3ccccc3)c(=O)c3cc(Br)cc(Br)c32)C(OC(C)=O)C(OC(C)=O)C1OC(C)=O (stereo unspecified) ?
Ans: > 100 µM (inactive)

Q: Which GI50 value belongs to C[n+]1c2ccccc2c(NC(CCC(N)=O)C(=O)O)c2ccccc21 (stereo unspecified) ?
Ans: > 100 µM (inactive)

* * *

tested on: HT-29; assay: NCI tumour cell line growth inhibition, 48 h
Calls of active or inactive are those of the source. Cut-off read from the data, not from the text of the source: active = GI50 up to about 1.1 µM and inactive = higher.
Permitted responses: true (active), false (inactive)

Field: example entries. Status: answers known.
Compound | Qualitative Label
Clc1ccc2c(NCCCCN3OC3c3ccccc3)ccnc2c1 (configuration not stated) | false
COc1cccc(/C=N/NC(=O)CN(C)C)c1O | false
CN(C)/C=C/c1nnc([N+](=O)[O-])s1 | false
CC(=O)N[C@@H](Cc1ccc(O)cn1)C(=O)NC1CCCCC1 | false
COc1cc(C[C@@]2(C)[C@@H]3CCC[C@H](CO)[C@@]3(C)CC[C@@H]2C)c(Cl)c(OC)c1 | false

Q: Record lookup: outcome of this test for c1ccc(C2OC3(CCC[C@H]4C[C@H]43)O[C@H]2c2ccccc2)cc1 (some centres not stated) ?
Ans: false

Q: Record lookup: outcome of this test for `O=C(c1ccccc1)c1c(C(F)(F)F)[n+]([O-])c2cc(Cl)c(Cl)cc2[n+]1[O-]` ?
Ans: true

* * *

test system: SK-MEL-28; experiment: NCI tumour cell line growth inhibition, 48 h
Calls of active or inactive are those of the source. No stated cut-off is given here; in the data, active = GI50 up to about 1.1 µM and inactive = higher.
Permitted responses: true = active, false = inactive

Field: example entries. Status: answers known.
Compound | Qualitative Label
O=c1/c(=C/c2ccccc2[N+](=O)[O-])sc2nc3ccccc3n12 | false
COc1ncnc2c(NC3OC(CO)C(O)C3O)ncnc12 (configuration not stated) | false
C=CCN1C(=O)CC(=O)N(NC2=NNC3(C(=O)N2)c2ccccc2-c2ccccc23)C1=S | false
O=C1Nc2ccc(Br)cc2/C1=N/NC(=S)Nc1ccc(F)cc1 | false
O=C(O)CC1(C(=O)O)CCCCC1 | false
C[C@]12CC[C@H]3[C@@H](CC[C@]4(O)C[C@@H](O)CC[C@]34/C=N/O)[C@@]1(O)CC[C@@H]2C1=COC(=O)C1 | true

Q: Record lookup: outcome of this test for `O=C1Nc2c(Cl)cc(Cl)cc2/C1=N/NC(=O)c1ccncc1` ?
Ans: false

Q: Record lookup: outcome of this test for `COC(=O)c1s/c(=N\C(=S)N(C)C)n(-c2ccc(Cl)cc2)c1C(=O)OC` ?
Ans: false

Q: Record lookup: outcome of this test for CC1(O)CCC(C(C)(C)O)CC1 (configuration not stated) ?
Ans: false

Q: Record lookup: outcome of this test for `CN(Cc1cccc2ccccc12)Cc1cccc2ccccc12` ?
Ans: false

Q: Record lookup: outcome of this test for `COc1ccc(/N=N\c2c(N)nn3c(SC)c(C#N)c(N)nc23)cc1` ?
Ans: false

Value source: ChEMBL document CHEMBL1201862
